Data credit: paper PMC3710115

# tested system: r(CAG)12
# protocol summary: Fluorescence anisotropy binding
# reported conditions: fluorescence anisotropy
observation type: Kd (nM)

{"compound": "N#Cc1c(N2CCCC2)nc(N)c2c(N)nc(N3CCCC3)cc12", "observation type": "Kd", "measured value": 1400}

---

# System: r(CGG)12-MBNL1
# protocol summary: TR-FRET inhibition of r
# Format: binding
# reported conditions: read-out: IC50, Compound 2; ligand pre-incubated with the RNA followed by addition of MBNL1
observation type: IC50 (µM)

{"compound": "N#Cc1c(N2CCCC2)nc(N)c2c(N)nc(N3CCCC3)cc12", "observation type": "IC50", "measured value": 45}
